assayed.system: D(3) dopamine receptor (Homo sapiens)
Sequence (P35462 whole entry): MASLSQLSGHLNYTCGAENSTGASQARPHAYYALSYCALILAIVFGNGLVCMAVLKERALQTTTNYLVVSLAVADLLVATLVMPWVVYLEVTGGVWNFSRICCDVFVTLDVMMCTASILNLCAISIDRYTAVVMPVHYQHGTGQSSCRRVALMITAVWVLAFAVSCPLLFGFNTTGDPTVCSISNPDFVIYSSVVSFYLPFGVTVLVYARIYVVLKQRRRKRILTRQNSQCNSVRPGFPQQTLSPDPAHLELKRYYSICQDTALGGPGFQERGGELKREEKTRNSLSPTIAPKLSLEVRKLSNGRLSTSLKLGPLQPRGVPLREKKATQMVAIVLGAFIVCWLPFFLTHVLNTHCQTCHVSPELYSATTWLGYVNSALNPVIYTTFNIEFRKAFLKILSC
pKi: −log10 of the molar value.
Threshold check on pKi: at or above 8 gives label 1, strictly below gives label 0.

{"compound": "O=Cc1cnn2cccc(OCCCCN3CCN(c4cccc(Cl)c4Cl)CC3)c12", "cat": "label 0"}

stdin: Is reported pKi greater than or equal to 8 here: O=Cc1cnn2cc(OCCCCN3CCN(c4cccc(Cl)c4Cl)CC3)ccc12
stdout: label 1

====

assayed.system: D(2) dopamine receptor (Homo sapiens, UniProt P14416)
Sequence (P14416 whole entry): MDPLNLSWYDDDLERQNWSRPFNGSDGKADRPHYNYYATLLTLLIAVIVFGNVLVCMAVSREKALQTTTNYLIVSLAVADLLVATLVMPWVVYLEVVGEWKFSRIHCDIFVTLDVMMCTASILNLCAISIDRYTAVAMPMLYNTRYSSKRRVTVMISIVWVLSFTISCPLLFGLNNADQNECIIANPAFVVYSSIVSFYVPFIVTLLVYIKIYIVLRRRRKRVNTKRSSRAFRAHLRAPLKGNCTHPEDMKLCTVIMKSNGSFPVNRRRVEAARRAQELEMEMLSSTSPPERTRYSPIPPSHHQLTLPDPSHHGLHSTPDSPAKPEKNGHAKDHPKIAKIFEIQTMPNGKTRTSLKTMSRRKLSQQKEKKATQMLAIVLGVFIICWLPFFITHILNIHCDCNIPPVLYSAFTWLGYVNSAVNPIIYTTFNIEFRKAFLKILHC
method.summary: biochemical
Assay type: cell-based, CHO
measure.name: Ki (nM)
Provide only the numeric value, understood in nM.

The examples below pair each entry with its known result.
{"molecule": "O=Cc1c(OCCCCN2CCN(c3cccc(Cl)c3Cl)CC2)nn2ccccc12", "assayed.system": "D(2) dopamine receptor (Homo sapiens, UniProt P14416)", "Ki / nM": 14}
{"molecule": "N#Cc1cc2cc(OCCCCN3CCN(c4cccc(Cl)c4Cl)CC3)ccn2n1", "assayed.system": "D(2) dopamine receptor (Homo sapiens, UniProt P14416)", "Ki / nM": 6.7}
{"molecule": "O=Cc1cc2cc(OCCCCN3CCN(c4cccc(Cl)c4Cl)CC3)ccn2n1", "assayed.system": "D(2) dopamine receptor (Homo sapiens, UniProt P14416)", "Ki / nM": 14}
{"molecule": "CCOC(=O)c1cc2cc(OCCCCN3CCN(c4cccc(Cl)c4Cl)CC3)ccn2n1", "assayed.system": "D(2) dopamine receptor (Homo sapiens, UniProt P14416)", "Ki / nM": 6.7}
{"molecule": "O=Cc1cnn2cc(OCCCCN3CCN(c4cccc(Cl)c4Cl)CC3)ccc12", "assayed.system": "D(2) dopamine receptor (Homo sapiens, UniProt P14416)", "Ki / nM": 8.1}
{"molecule": "Clc1cccc(N2CCN(CCCCOc3ccn4nccc4c3)CC2)c1Cl", "assayed.system": "D(2) dopamine receptor (Homo sapiens, UniProt P14416)", "Ki / nM": 39}
{"molecule": "Clc1cccc(N2CCN(CCCCOc3cccn4nccc34)CC2)c1Cl", "assayed.system": "D(2) dopamine receptor (Homo sapiens, UniProt P14416)", "Ki / nM": 30}
{"molecule": "O/N=C/c1cc2cc(OCCCCN3CCN(c4cccc(Cl)c4Cl)CC3)ccn2n1", "assayed.system": "D(2) dopamine receptor (Homo sapiens, UniProt P14416)", "Ki / nM": 2.3}
{"molecule": "Clc1cccc(N2CCN(CCCCOc3cccc4ccnn34)CC2)c1Cl", "assayed.system": "D(2) dopamine receptor (Homo sapiens, UniProt P14416)", "Ki / nM": 16}
{"molecule": "Clc1cccc(N2CCN(CCCCOc3ccc4ccnn4c3)CC2)c1Cl", "assayed.system": "D(2) dopamine receptor (Homo sapiens, UniProt P14416)", "Ki / nM": 2.1}

stdin: Param readout = Ki; param system = D(2) dopamine receptor (Homo sapiens, UniProt P14416); param query = O=Cc1cnn2ccc(OCCCCN3CCN(c4cccc(Cl)c4Cl)CC3)cc12 ; response: value
stdout: 3.2

stdin: Hello, I am looking for reported Ki with D(2) dopamine receptor (Homo sapiens, UniProt P14416) for N#Cc1cnn2ccc(OCCCCN3CCN(c4cccc(Cl)c4Cl)CC3)cc12 . Could you help?
stdout: 0.32

stdin: Write down the reported Ki of O=Cc1cnn2c(OCCCCN3CCN(c4cccc(Cl)c4Cl)CC3)cccc12 , test system: D(2) dopamine receptor (Homo sapiens, UniProt P14416).
stdout: 15

stdin: State its Ki on D(2) dopamine receptor (Homo sapiens, UniProt P14416): O/N=C/c1cnn2ccc(OCCCCN3CCN(c4cccc(Cl)c4Cl)CC3)cc12 (stereo in doubt; 8a)
stdout: 1.7

stdin: Query for D(2) dopamine receptor (Homo sapiens, UniProt P14416): what Ki does the record show for OCc1cc2cc(OCCCCN3CCN(c4cccc(Cl)c4Cl)CC3)ccn2n1 ?
stdout: 2.3

stdin: Return Ki measured with D(2) dopamine receptor (Homo sapiens, UniProt P14416) given this molecule: O/N=C/c1cnn2ccc(OCCCCN3CCN(c4cccc(Cl)c4Cl)CC3)cc12 (stereo in doubt; 8b)
stdout: 0.25

stdin: Lab request: please report Ki under test system D(2) dopamine receptor (Homo sapiens, UniProt P14416) for O=Cc1cnn2cccc(OCCCCN3CCN(c4cccc(Cl)c4Cl)CC3)c12
stdout: 24

# credit: ChEMBL document CHEMBL3286313
